methodDescription: Phase 1 oral bioavailability study of Rigosertib soft gelatin capsule in MDS patients, fasted and fed, vs IV
Assay type: in vivo, human
runConditions: human, plasma, po, 560 mg, 560 mg Oral (Fasting), MDS patients
experimentalEndpoint: bioavailability (%)
Answer with a number only, understood to be in %.

Supply recorded bioavailability for COc1cc(OC)c(/C=C/S(=O)(=O)Cc2ccc(OC)c(NCC(=O)[O-])c2)c(OC)c1.[Na+] here. 34.9

====

methodDescription: Phase 1 oral bioavailability study of Rigosertib soft gelatin capsule in MDS patients, fasted and fed, vs IV
Format: in vivo, human
runConditions: human, plasma, iv, 800 mg, 800 mg IV (24 hr infusion), MDS patients
experimentalEndpoint: AUC (ng·h/mL)
Lab book: enter the figure in ng·h/mL, no units written.

Fill in AUC for record COc1cc(OC)c(/C=C/S(=O)(=O)Cc2ccc(OC)c(NCC(=O)[O-])c2)c(OC)c1.[Na+] [Rigosertib] 52700

====

methodDescription: Phase 1 oral bioavailability study of Rigosertib soft gelatin capsule in MDS patients, fasted and fed, vs IV
Type: in vivo, human
runConditions: human, plasma, po, 560 mg, 560 mg Oral (Fasting), MDS patients
experimentalEndpoint: AUC

Note down AUC recorded for COc1cc(OC)c(/C=C/S(=O)(=O)Cc2ccc(OC)c(NCC(=O)[O-])c2)c(OC)c1.[Na+] 6890 ng·h/mL

====

methodDescription: Phase 1 oral bioavailability study of Rigosertib soft gelatin capsule in MDS patients, fasted and fed, vs IV
Type: in vivo, human
runConditions: human, plasma, po, 560 mg, 560 mg Oral (Fasting), MDS patients
experimentalEndpoint: Cmax (ng/mL)
The reply should contain only the number, in ng/mL.

Please give the documented Cmax of COc1cc(OC)c(/C=C/S(=O)(=O)Cc2ccc(OC)c(NCC(=O)[O-])c2)c(OC)c1.[Na+] 2420

====

methodDescription: Phase 1 oral bioavailability study of Rigosertib soft gelatin capsule in MDS patients, fasted and fed, vs IV
Assay type: in vivo, human
runConditions: human, plasma, po, 560 mg, 560 mg Oral (Fed), MDS patients
Procedure: A Phase 1 study was conducted to assess oral bioavailability of a novel oral ON 01910.Na (Rigosertib) soft gelatin capsule formulation of Example 1 in MDS patients under fasted and fed conditions. This was a single-dose, three-treatment, three-period sequential design for studying the effects of food on the bioavailability of an immediate-release soft gelatin capsule formulation. […] Rigosertib plasma levels were analyzed by a validated LC/MS/MS method. […]
experimentalEndpoint: AUC
Kindly write the number and append the unit.

Report measured AUC; entry is COc1cc(OC)c(/C=C/S(=O)(=O)Cc2ccc(OC)c(NCC(=O)[O-])c2)c(OC)c1.[Na+] [Rigosertib] 2.71 µg·h/mL

====

methodDescription: Oral administration of Rigosertib 25 mg dose capsule in MDS patients, plasma level
runConditions: human, plasma, po, 25 mg
experimentalEndpoint: half-life

Consider the compound COc1cc(OC)c(/C=C/S(=O)(=O)Cc2ccc(OC)c(NCC(=O)[O-])c2)c(OC)c1.[Na+] [Rigosertib] . State its measured half-life. ~10 h

====

methodDescription: Phase 1 oral bioavailability study of Rigosertib soft gelatin capsule in MDS patients, fasted and fed, vs IV
Format: in vivo, human
runConditions: human, plasma, po, 560 mg, 560 mg Oral (Fed), MDS patients
experimentalEndpoint: bioavailability (%)
Provide the reading as a plain figure in %.

Using the record for COc1cc(OC)c(/C=C/S(=O)(=O)Cc2ccc(OC)c(NCC(=O)[O-])c2)c(OC)c1.[Na+] , state its measured bioavailability. 13.8

====

methodDescription: Phase 1 oral bioavailability study of Rigosertib soft gelatin capsule in MDS patients, fasted and fed, vs IV
Format: in vivo, human
runConditions: human, plasma, po, 560 mg, 560 mg Oral (Fasting), MDS patients
experimentalEndpoint: Tmax (h)
Hi! Could you send only the number? It should be in h, unit omitted.

Provide only the value of recorded Tmax for COc1cc(OC)c(/C=C/S(=O)(=O)Cc2ccc(OC)c(NCC(=O)[O-])c2)c(OC)c1.[Na+] 1

====

methodDescription: Phase 1 oral bioavailability study of Rigosertib soft gelatin capsule in MDS patients, fasted and fed, vs IV
Type: in vivo, human
runConditions: human, plasma, iv, 800 mg, 800 mg IV (24 hr infusion), MDS patients
experimentalEndpoint: Cmax (ng/mL)
A number alone suffices; assume ng/mL.

Hello, please tell me recorded Cmax for this one: COc1cc(OC)c(/C=C/S(=O)(=O)Cc2ccc(OC)c(NCC(=O)[O-])c2)c(OC)c1.[Na+] 3140
